Reported composite z-score is given for each of the following molecules.
target: Carbonic anhydrase 2 (Homo sapiens); experiment: CAII small-molecule binders, profiling panel, biochemical, small-molecule microarray, Alexa647-labelled CAII (AID 1122); details: CAII-A647 binding fluorescence, higher = more signal

Molecule	composite z-score
CC(CCN1CCCCc2nc(C)c(C)cc21)=NOC[C@@H](O)COCc1ccco1	-0.297
CCOC(=O)C1=NO[C@@]2(C=C(Br)C3(OCCCO3)[C@H]3O[C@H]32)C1	0.486
COc1ccc(COC(=O)NN=C2C[C@@H](O)[C@@H](O)[C@@H]3[C@@H]4C(=O)N(c5cccc(Oc6ccccc6)c5)C(=O)[C@@H]4CC[C@@H]23)cc1	0.0806

The molecule listed as CCN1C(=O)[C@H]2[C@H]3[C@H](O)[C@H](O)CC(=NOCC(C)C)[C@@H]3CC[C@H]2C1=O has a reported composite z-score of 0.459

The molecule listed as COc1ccc(O[C@H]2C=C[C@@H](c3ccccc3)O[C@@H]2CON=C(C)C)cc1 has a reported composite z-score of 0.153

The molecule listed as COc1cccc([C@H]2Oc3ccc(OC)cc3C(=NOC[C@@H](O)[C@H]3O[C@@H]4OC(C)(C)O[C@@H]4[C@H]3O)[C@@H]2O)c1 has a reported composite z-score of -0.149

The molecule listed as COC(=O)[C@H]1O[C@@H](c2c(OC)c(OC)c(C)c(OC)c2OC)[C@H](C)[C@@H](O)[C@H]1C has a reported composite z-score of 0.0615

The molecule listed as CCOC(=O)[C@H](Cc1ccccc1)NC(=O)CCC1CC(OC(=O)NCCc2ccc(F)cc2)CC2(CCCC(COC(=O)NCCOC)O2)O1 (some centres not stated) has a reported composite z-score of 0.0121

The molecule listed as C[C@@H](c1ccccc1)N1C(=O)[C@H]2[C@H]3[C@H](O)[C@H](O)CC(=NO[C@@H]4O[C@H](CO)[C@@H](O)[C@H](O)[C@H]4O)[C@H]3CC[C@H]2C1=O has a reported composite z-score of -0.0193
